biological target: Bromodomain-containing protein 4 (Homo sapiens, UniProt O60885, Y390A); assay: Displacement of Alexa Fluor 647 labelled I-BET762 from N-terminal His6-tagged human BRD4 BD1 (1 to 477 residues)/BD2 Y390A mutant expressed in Escherichia coli after 1 hr by TR-FRET assay
pIC50: −log10 of the molar value.
property name: pIC50

Consider the reported pIC50 for these compounds:
| compound | numeric value |
| --- | --- |
| Cc1noc(C)c1-c1cc2ncc3c(c2cc1O[C@H]1C[C@H](N)C1)n(C(C)c1ccccn1)c(=O)n3C (some centres undefined) | 7.10 |
| COc1cc2c(cc1-c1c(C)noc1C)ncc1c2n([C@H](C)c2ccccn2)c(=O)n1C | 7.30 |
| Cc1noc(C)c1-c1cc2ncc3c(c2cc1OCCCO)n(C(C)c1ccccn1)c(=O)n3C (centres undefined) | 6.30 |

I = Cc1noc(C)c1-c1cc2ncc3c(c2cc1C(=O)O)n(C(C)c1ccccn1)c(=O)n3C (centres undefined)
II = Cc1noc(C)c1-c1cc2ncc3c(c2cc1OCCN(C)C)n([C@H](C)c1ccccn1)c(=O)n3C
I or II : whose pIC50 is greater? // caller expects the label of the chosen entry II
(II: 5.70, I: 4.90)

I = Cc1noc(C)c1-c1cc2ncc3c(c2cc1OCC(=O)O)n([C@H](C)c1ccccn1)c(=O)n3C
II = Cc1noc(C)c1-c1cc2ncc3c(c2cc1OC[C@H]1CCNC1)n(C(C)c1ccccn1)c(=O)n3C (mixture of isomers)
III = CNCCCOc1cc2c(cc1-c1c(C)noc1C)ncc1c2n(C(C)c2ccccn2)c(=O)n1C (centres undefined)
IV = COCc1nc2cnc3cc(-c4c(C)noc4C)c(OC)cc3c2n1[C@H](C)c1ccccc1
V = Cc1noc(C)c1-c1cc2ncc3c(c2cc1O[C@H]1C[C@@H](N)C1)n(C(C)c1ccccn1)c(=O)n3C (some centres undefined)
Put these in order: smallest pIC50 first, largest last. Show the ranking through the labels, in the order asked for. I, III, II, V, IV

A = Cc1noc(C)c1-c1cc2ncc3c(c2cc1OCCCN)n(C(C)c1ccccn1)c(=O)n3C (centres undefined)
B = Cc1noc(C)c1-c1cc2ncc3c(c2cc1OCCN)n(C(C)c1ccccn1)c(=O)n3C (centres undefined)
C = Cc1noc(C)c1-c1cc2ncc3c(c2cc1O[C@H]1CCNC1)n(C(C)c1ccccn1)c(=O)n3C (mixture of isomers)
// ranking: key=pIC50, reverse=True Show the ranking through the labels, in the order asked for. A, B, C

###

system: Blood; test: Antiinflammatory activity in human whole blood assessed as reduction in LPS-induced IL-6 production preincubated for 30 mins followed by LPS challenge and measured after overnight incubation by mesoscale assay; type: functional, tissue-based
pIC50: −log10 of the molar value.
property name: pIC50

| molecule | property name | numeric value |
| --- | --- | --- |
| COc1ccc2c(c1)C(c1ccc(Cl)cc1)=N[C@@H](NC(=O)OCc1ccccc1)c1nnc(C)n1-2 | pIC50 | 5.80 |

I = COc1cc2c(cc1-c1c(C)noc1C)ncc1[nH]c(=O)n([C@H](C)c3ccccn3)c12
II = COCc1nc2cnc3cc(-c4c(C)noc4C)c(OC[C@H]4CCNC4)cc3c2n1[C@H](C)c1ccccc1 [GSK778]
Just tell me: smaller pIC50 value, I or II ? Record your answer as the label of the chosen record. I

###

target: Bromodomain-containing protein 3 (Homo sapiens, UniProt Q15059, Y73A); assay: Displacement of Alexa Fluor 647 labelled I-BET762 from N-terminal His6-tagged human BRD3 BD2 (1 to 435 residues)/BD1 Y73A mutant expressed in Escherichia coli after 1 hr by TR-FRET assay
Sequence (Q15059 2-726 Y73A limits assumed): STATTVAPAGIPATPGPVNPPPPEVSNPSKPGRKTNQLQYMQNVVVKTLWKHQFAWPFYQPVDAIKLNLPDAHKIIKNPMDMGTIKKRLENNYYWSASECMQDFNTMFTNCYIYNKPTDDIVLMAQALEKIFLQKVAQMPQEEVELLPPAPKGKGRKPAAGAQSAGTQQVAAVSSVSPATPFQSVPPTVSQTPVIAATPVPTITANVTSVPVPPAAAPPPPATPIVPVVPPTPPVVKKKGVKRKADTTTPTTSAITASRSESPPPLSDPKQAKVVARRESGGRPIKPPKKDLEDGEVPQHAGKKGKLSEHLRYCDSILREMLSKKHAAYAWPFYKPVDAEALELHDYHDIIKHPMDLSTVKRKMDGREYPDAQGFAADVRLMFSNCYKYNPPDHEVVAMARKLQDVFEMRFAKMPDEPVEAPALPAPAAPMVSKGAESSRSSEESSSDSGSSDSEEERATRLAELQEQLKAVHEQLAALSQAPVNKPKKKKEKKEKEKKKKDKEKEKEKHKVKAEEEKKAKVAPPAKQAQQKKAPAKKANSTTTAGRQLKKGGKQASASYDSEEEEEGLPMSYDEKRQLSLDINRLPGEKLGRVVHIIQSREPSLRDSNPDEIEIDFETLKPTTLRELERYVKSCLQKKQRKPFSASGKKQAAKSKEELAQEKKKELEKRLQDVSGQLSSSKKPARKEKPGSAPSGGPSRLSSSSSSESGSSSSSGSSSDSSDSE
property name: IC50 (nM)

I = COCc1nc2cnc3cc(-c4c(C)noc4C)c(OC)cc3c2n1[C@H](C)c1ccccc1
II = COCc1nc2cnc3cc(-c4c(C)noc4C)c(OC[C@H]4CCNC4)cc3c2n1[C@H](C)c1ccccc1 [GSK778]
Hi there! Just curious which has the higher IC50 between I and II . Selection: enter the item's label. II

###

target: Bromodomain-containing protein 2 (Homo sapiens, UniProt P25440, Y386A); assay: Displacement of Alexa Fluor 647 labelled I-BET762 from N-terminal His6-tagged human BRD2 BD1 (1 to 473 residues)/BD2 Y386A mutant expressed in Escherichia coli after 1 hr by TR-FRET assay
Sequence (P25440 whole entry Y386A, the tested form may be a part): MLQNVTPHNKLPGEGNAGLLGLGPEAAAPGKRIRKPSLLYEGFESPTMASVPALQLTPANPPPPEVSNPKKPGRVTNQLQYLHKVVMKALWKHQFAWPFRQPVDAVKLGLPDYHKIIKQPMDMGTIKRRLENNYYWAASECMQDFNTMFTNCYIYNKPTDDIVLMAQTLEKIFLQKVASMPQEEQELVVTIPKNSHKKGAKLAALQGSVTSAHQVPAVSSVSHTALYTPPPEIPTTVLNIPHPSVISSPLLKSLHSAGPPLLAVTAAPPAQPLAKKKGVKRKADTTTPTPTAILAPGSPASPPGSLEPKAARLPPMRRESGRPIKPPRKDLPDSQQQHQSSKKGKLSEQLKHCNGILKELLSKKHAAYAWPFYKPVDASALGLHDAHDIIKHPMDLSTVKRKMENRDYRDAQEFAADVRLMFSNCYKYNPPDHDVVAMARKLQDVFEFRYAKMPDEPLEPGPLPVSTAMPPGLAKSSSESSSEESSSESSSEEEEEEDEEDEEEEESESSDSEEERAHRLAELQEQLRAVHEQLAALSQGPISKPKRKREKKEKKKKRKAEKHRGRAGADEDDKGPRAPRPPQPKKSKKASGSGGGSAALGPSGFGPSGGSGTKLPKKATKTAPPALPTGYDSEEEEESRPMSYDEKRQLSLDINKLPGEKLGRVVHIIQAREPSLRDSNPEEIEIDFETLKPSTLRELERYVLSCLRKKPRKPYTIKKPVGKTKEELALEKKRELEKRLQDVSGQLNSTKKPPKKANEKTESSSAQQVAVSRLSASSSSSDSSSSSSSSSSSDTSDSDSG
pIC50: −log10 of the molar value.
property name: pIC50

I = COCc1nc2cnc3cc(-c4c(C)noc4C)c(OC[C@H]4CCNC4)cc3c2n1[C@H](C)c1ccccc1 [GSK778]
II = COCc1nc2cnc3cc(-c4c(C)noc4C)c(OC)cc3c2n1[C@H](C)c1ccccc1
Lab notebook, comparison: I versus II , higher pIC50 goes to which? Select an item and report its label. II

###

molecular target: Bromodomain-containing protein 4 (Homo sapiens, UniProt O60885, Y97A); experiment: Displacement of Alexa Fluor 647 labelled I-BET762 from N-terminal His6-tagged human BRD4 BD2 (1 to 477 residues)/BD1 Y97A mutant expressed in Escherichia coli after 1 hr by TR-FRET assay
property name: IC50 (µM)

| compound | subject of test | IC50 (µM) |
| --- | --- | --- |
| Cc1noc(C)c1-c1cc2ncc3c(c2cc1OC[C@H]1CCNC1)n(C(C)c1ccccn1)c(=O)n3C (mixture of isomers) | Bromodomain-containing protein 4 (Homo sapiens, UniProt O60885, Y97A) | 25.1 |
| Cc1noc(C)c1-c1cc2ncc3c(c2cc1OCCN)n(C(C)c1ccccn1)c(=O)n3C (stereo unspecified) | Bromodomain-containing protein 4 (Homo sapiens, UniProt O60885, Y97A) | 31.6 |
| CC(=O)NCCCOc1cc2c(cc1-c1c(C)noc1C)ncc1c2n(C(C)c2ccccn2)c(=O)n1C (stereo unspecified) | Bromodomain-containing protein 4 (Homo sapiens, UniProt O60885, Y97A) | 3.16 |
| Cc1noc(C)c1-c1cc2ncc3c(c2cc1OCC(=O)O)n([C@H](C)c1ccccn1)c(=O)n3C | Bromodomain-containing protein 4 (Homo sapiens, UniProt O60885, Y97A) | 12.6 |
| COCc1nc2cnc3cc(-c4c(C)noc4C)c(OC)cc3c2n1[C@H](C)c1ccccc1 | Bromodomain-containing protein 4 (Homo sapiens, UniProt O60885, Y97A) | 0.0398 |

I = Cc1noc(C)c1-c1cc2ncc3c(c2cc1O[C@H]1C[C@H](N)C1)n(C(C)c1ccccn1)c(=O)n3C (stereo partly specified)
II = COc1cc2c(cc1-c1c(C)noc1C)ncc1c2n([C@H](C)c2ccccn2)c(=O)n1C
// task: argmin of IC50 over [ I , II ] Record your answer as the label of the chosen record. II

###

target: Bromodomain-containing protein 2 (Homo sapiens); assay: Binding affinity to BRD2 BD1 (unknown origin) by isothermal titration calorimetric method
property name: Kd

Kd for `CC(=O)NCCCCn1c2c(c3ccccc31)C(=O)NCC2` ? 3.3 to 8.6 µM

###

biological target: Bromodomain-containing protein 3 (Homo sapiens, UniProt Q15059); assay: Binding affinity to BRD3 BD1 (unknown origin) by isothermal titration calorimetric method
Sequence (Q15059 whole entry): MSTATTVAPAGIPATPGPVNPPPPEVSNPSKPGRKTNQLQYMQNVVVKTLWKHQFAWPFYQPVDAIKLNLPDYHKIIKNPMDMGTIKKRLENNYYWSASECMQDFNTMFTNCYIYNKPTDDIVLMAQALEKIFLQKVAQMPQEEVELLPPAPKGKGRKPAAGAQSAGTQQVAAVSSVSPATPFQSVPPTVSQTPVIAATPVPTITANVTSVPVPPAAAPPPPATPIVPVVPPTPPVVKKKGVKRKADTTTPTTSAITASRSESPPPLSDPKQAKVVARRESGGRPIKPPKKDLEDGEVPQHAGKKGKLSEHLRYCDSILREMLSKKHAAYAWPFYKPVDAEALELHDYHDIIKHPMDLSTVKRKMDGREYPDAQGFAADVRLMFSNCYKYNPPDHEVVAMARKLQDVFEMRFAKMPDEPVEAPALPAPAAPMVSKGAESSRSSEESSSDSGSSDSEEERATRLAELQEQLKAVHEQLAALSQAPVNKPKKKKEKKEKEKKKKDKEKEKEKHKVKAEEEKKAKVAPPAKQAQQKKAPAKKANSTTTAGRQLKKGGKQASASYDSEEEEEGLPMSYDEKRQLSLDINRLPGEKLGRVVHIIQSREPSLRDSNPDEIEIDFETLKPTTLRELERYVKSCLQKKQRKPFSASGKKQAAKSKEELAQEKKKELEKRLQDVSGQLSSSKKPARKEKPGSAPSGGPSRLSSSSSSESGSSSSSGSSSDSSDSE
pKd: −log10 of the molar value.
property name: pKd

What value of pKd has been reported for the following molecule? `CC(=O)NCCCCn1c2c(c3ccccc31)C(=O)NCC2` 5.07 to 5.48

###

target: Bromodomain-containing protein 2 (Homo sapiens, UniProt P25440, Y113A); assay: Displacement of Alexa Fluor 647 labelled I-BET762 from N-terminal His6-tagged human BRD2 BD2 (1 to 473 residues)/BD1 Y113A mutant expressed in Escherichia coli after 1 hr by TR-FRET assay
Sequence (P25440 whole entry Y113A, the tested form may be a part): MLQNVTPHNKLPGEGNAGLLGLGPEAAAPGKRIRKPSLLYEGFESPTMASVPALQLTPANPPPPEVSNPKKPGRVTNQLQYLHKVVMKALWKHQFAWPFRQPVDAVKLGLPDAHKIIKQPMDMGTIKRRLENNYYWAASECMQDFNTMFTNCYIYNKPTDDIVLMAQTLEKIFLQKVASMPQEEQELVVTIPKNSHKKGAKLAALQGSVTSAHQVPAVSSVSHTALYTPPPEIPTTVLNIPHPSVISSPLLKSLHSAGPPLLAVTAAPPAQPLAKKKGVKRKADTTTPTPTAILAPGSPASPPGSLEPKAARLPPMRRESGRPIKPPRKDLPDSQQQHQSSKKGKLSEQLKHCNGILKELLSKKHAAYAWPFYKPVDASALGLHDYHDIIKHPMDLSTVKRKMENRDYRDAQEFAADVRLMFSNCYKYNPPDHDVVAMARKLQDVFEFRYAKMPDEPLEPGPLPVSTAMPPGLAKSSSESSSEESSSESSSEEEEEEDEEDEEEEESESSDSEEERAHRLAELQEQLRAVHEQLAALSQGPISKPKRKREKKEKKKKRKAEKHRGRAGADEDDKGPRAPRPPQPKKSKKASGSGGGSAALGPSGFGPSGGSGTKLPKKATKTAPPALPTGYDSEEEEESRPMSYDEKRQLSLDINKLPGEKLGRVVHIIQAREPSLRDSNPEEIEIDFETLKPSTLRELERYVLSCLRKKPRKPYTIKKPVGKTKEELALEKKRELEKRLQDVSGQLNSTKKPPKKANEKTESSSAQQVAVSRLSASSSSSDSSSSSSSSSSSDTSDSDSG
pIC50: −log10 of the molar value.
property name: pIC50

a = COCc1nc2cnc3cc(-c4c(C)noc4C)c(OC[C@H]4CCNC4)cc3c2n1[C@H](C)c1ccccc1
b = COCc1nc2cnc3cc(-c4c(C)noc4C)c(OC)cc3c2n1[C@H](C)c1ccccc1
Of a and b , whose reported pIC50 is the larger number? Your answer should be the label attached to the chosen record. b
(b: 7.40, a: 5.50)

###

target: Bromodomain-containing protein 4 (Homo sapiens, UniProt O60885, Y97A); test: Displacement of Alexa Fluor 647 labelled I-BET762 from N-terminal His6-tagged human BRD4 BD2 (1 to 477 residues)/BD1 Y97A mutant expressed in Escherichia coli after 1 hr by TR-FRET assay
property name: IC50 (µM)

| compound | measurement units | IC50 |
| --- | --- | --- |
| Cc1noc(C)c1-c1cc2ncc3c(c2cc1OC[C@@H]1CCNC1)n(C(C)c1ccccn1)c(=O)n3C (mixture of isomers) | µM | 31.6 |
| Cc1noc(C)c1-c1cc2ncc3c(c2cc1O[C@@H]1CCNC1)n([C@H](C)c1ccccn1)c(=O)n3C | µM | 50.1 |
| Cc1noc(C)c1-c1cc2ncc3c(c2cc1OCCCN)n(C(C)c1ccccn1)c(=O)n3C (stereo not drawn) | µM | 15.8 |

a = Cc1noc(C)c1-c1cc2ncc3c(c2cc1OCC1CCNCC1)n(C(C)c1ccccn1)c(=O)n3C (stereo not drawn)
b = Cc1noc(C)c1-c1cc2ncc3c(c2cc1OCCCO)n(C(C)c1ccccn1)c(=O)n3C (stereo not drawn)
When a and b are compared, which has the higher number for IC50? I would appreciate it if you answered with the label of your choice. a
